# Tested on: Hs-578T
# measurement.description: NCI tumour cell line growth inhibition, 48 h
Activity calls are given as the source filed them. Rule as the data show it: active = GI50 up to about 1.1 µM and inactive = higher.
Select the matching outcome among active, inactive

Exercise: Could you check what this test reported for COc1ccccc1N1C(=O)CSC1c1c[nH]c2ccccc12 (stereo not given) ?
Solution: inactive

Exercise: Could you check what this test reported for c1ccc(/N=C(/Nc2ccccc2)N2CCCC2)cc1 ?
Solution: inactive

Exercise: Could you check what this test reported for O=c1c2cccnc2oc2c(Cl)cc(-c3nnn[nH]3)cc12 ?
Solution: inactive

Exercise: Could you check what this test reported for CN(C(=O)Cc1ccc(Cl)c(Cl)c1)[C@H]1CCCC[C@@H]1[N+]1(C)CCCC1 ?
Solution: inactive

Exercise: Could you check what this test reported for COC1/C=C/C(C)C(O)CC(O)/C=C/C(C)C(C(C)C(OC)C(C)CCC(=O)C(C)C(C/C=C/N(C)C=O)OC)OC(=O)/C=C/C=C(\C)CC(OC)CC2=CC(=O)O[C@@H](C(C)C(OC)C1)[C@H]2O (stereo not given in full) ?
Solution: active

Exercise: Could you check what this test reported for Cc1cc2c(c(/C=N/Cc3ccccc3)c1)OC1(C=C2)Oc2ccccc2C(=O)N1C (stereo not given) ?
Solution: inactive

Exercise: Could you check what this test reported for CCOC(=O)/C(=C\Nc1c(C)n(C)n(-c2ccccc2)c1=O)C(=O)c1ccccc1 ?
Solution: inactive

Exercise: Could you check what this test reported for O=C(O)c1nc2ccccc2nc1Nc1ccc(F)cc1 ?
Solution: inactive

Exercise: Could you check what this test reported for COc1ccc(/N=c2/[nH]c(N)c(C(=O)c3ccc(OC)cc3)s2)cc1 ?
Solution: active

Exercise: Could you check what this test reported for CCOC(=O)C(C(=O)OCC)C(NC(=O)Nc1cc(C(F)(F)F)ccc1OC)(C(F)(F)F)C(F)(F)F ?
Solution: inactive

Exercise: Could you check what this test reported for CN(Cc1cnc2nc(N)nc(N)c2n1)c1ccc(C(=O)NC23CC4CC(CC(C4)C2)C3)cc1 ?
Solution: inactive

Exercise: Could you check what this test reported for O=C(C(=O)c1cc(-c2ccccc2)nc2ccc3ccccc3c12)c1ccccc1 ?
Solution: inactive

Exercise: Could you check what this test reported for Cc1cc2nn(C3CCCO3)nc2cc1C (stereo not given) ?
Solution: inactive

Exercise: Could you check what this test reported for N#Cc1c(N)n(-c2cccc(C(=O)O)c2)c(=O)c2cc([N+](=O)[O-])ccc12 ?
Solution: inactive

Exercise: Could you check what this test reported for Cc1cccc(C)c1NC(=O)/C=C/c1ccccc1 ?
Solution: inactive

Exercise: Could you check what this test reported for Cc1c2n(c3ccccc13)S(=O)(=O)c1ccccc1-2 ?
Solution: inactive

Exercise: Could you check what this test reported for C=C1C(=O)OC2/C=C(CO)/C=C\C3OC3(C)CC(OC(=O)/C(C)=C/COC(C)=O)C12 (stereo not given) ?
Solution: inactive

Exercise: Could you check what this test reported for Nc1nc(S)c2c(N)n[nH]c2c1C(=O)Nc1ccc(Cl)cc1 ?
Solution: inactive

Exercise: Could you check what this test reported for O=C(O)CN1CCN(CC(=O)O)CCN(CC(=O)O)CC1 ?
Solution: inactive

Exercise: Could you check what this test reported for O=c1[nH]c(=O)n([C@@H]2O[C@H](CO)[C@@H](O)[C@@H]2F)cc1I ?
Solution: inactive

====

# Test system: SK-MEL-5
# measurement.description: NCI tumour cell line growth inhibition, 48 h
Activity calls are given as the source filed them. No stated cut-off is given here; in the data, active = GI50 up to about 1.1 µM and inactive = higher.
Select the matching outcome among true for active, false for inactive

Exercise: Could you check what this test reported for COc1c(C)cc2c(c1O)C1NC(C2)[C@H](O)N2C3COC(=O)[C@@]4(CS[C@@H](c5c(OC(C)=O)c(C)c6c(c53)OCO6)C12)NCCC1=C4NC2C=CC=CC12 (stereo partly specified) ?
Solution: true

Exercise: Could you check what this test reported for Fc1ccc(/N=N/N2CCCC2)cc1 ?
Solution: false

Exercise: Could you check what this test reported for c1ccc2c3c([nH]c2c1)C1CCCN1CC3 (stereo unspecified) ?
Solution: false

Exercise: Could you check what this test reported for COC(=O)[C@H]1NC(=O)CCSSC1(C)C ?
Solution: false

Exercise: Could you check what this test reported for C/C(=C\CBr)CCC(Br)C(C)(C)Cl (stereo unspecified) ?
Solution: false

Exercise: Could you check what this test reported for O=C(/C=C\c1ccccc1)Oc1ccc(/C=C2\CCC/C(=C\c3ccc(OC(=O)/C=C\c4ccccc4)cc3)C2=O)cc1 ?
Solution: false

Exercise: Could you check what this test reported for COc1cc(C2SCC(=O)N2c2ccccc2Cl)cc(OC)c1OC (stereo unspecified) ?
Solution: false

Exercise: Could you check what this test reported for COC(=O)C1=C(C)NC(C)=C(C(=O)OC)C1c1nc2sccn2c1[N+](=O)[O-] ?
Solution: false

Exercise: Could you check what this test reported for Cc1ccc(C2=Nn3c(nc4sc5c(c4c3=O)CCCC5)SC2)cc1 ?
Solution: false

Exercise: Could you check what this test reported for CC(=O)OCCC[C@@H]1C(=C(C)C)CCC2[C@@]1(C)CC[C@@]1(C)C[C@](C)(CCC=C(C)C)CC[C@]21C (stereo partly specified) ?
Solution: false

Exercise: Could you check what this test reported for CC(C)(C)OC(=O)N(O)CCCn1cnc2c(NC3CC3)ncnc21 ?
Solution: false

Exercise: Could you check what this test reported for O=c1cc(NNc2ccccc2F)[nH]c(=O)[nH]1 ?
Solution: false

Exercise: Could you check what this test reported for CCN(CC)P1(=S)Oc2ccc3ccccc3c2-c2c(ccc3ccccc23)O1 ?
Solution: false

Exercise: Could you check what this test reported for CN(C(=O)Cc1ccc(Cl)c(Cl)c1)[C@H]1CCCC[C@@H]1[N+]1(C)CCCC1 ?
Solution: false

Exercise: Could you check what this test reported for O=C(Nc1ccc(Cl)cc1)c1cc([N+](=O)[O-])ccc1O ?
Solution: false

Exercise: Could you check what this test reported for COc1cc2nc(-c3ccccc3)cc(O)c2cc1OC ?
Solution: false

Exercise: Could you check what this test reported for Cc1nc2sc3ccccc3n2c(=O)c1/N=N/c1ccc(Br)cc1 ?
Solution: false

Exercise: Could you check what this test reported for O=C1Oc2ccccc2C(=O)/C1=C/N1C(=O)N/C(=C\c2ccccc2O)C1=O ?
Solution: false

Exercise: Could you check what this test reported for O=C1OC(c2ccccc2)(c2ccccc2)CC1CN1CCOCC1 (stereo unspecified) ?
Solution: false

Exercise: Could you check what this test reported for COc1cc(S(=O)(=O)Nc2ccc(-c3csc(/N=C\c4cccs4)n3)cc2)ccc1Cl ?
Solution: false

Exercise: Could you check what this test reported for COc1cc(C2SC(=N)Nc3c2c(C)nn3C(=O)Cc2ccccc2)ccc1O (stereo unspecified) ?
Solution: false

Exercise: Could you check what this test reported for Cc1cccc(NC2=NC(=O)C(CC(=O)Nc3cccc(C)c3C)S2)c1 (stereo unspecified) ?
Solution: false

Exercise: Could you check what this test reported for COC(C(=O)NN)c1ccccc1 (stereo unspecified) ?
Solution: false

Exercise: Could you check what this test reported for O=c1cc(CO)n(CCc2c[nH]c3ccccc23)cc1O ?
Solution: false

Exercise: Could you check what this test reported for O=[N+]([O-])c1cn[n+]([O-])c2ccccc12 ?
Solution: false

Exercise: Could you check what this test reported for Cc1ccccc1C(=O)N1CCN(C(=O)c2ccccc2C)CC1 ?
Solution: false

Measured values drawn from ChEMBL document CHEMBL1201862 for this set.
